Documented CRF2R Emax % across a set of binders
assayedSystem: T1, corticotropin releasing factor 2 receptor
T1 sequence (Q13324 whole entry, species assumed, looked up): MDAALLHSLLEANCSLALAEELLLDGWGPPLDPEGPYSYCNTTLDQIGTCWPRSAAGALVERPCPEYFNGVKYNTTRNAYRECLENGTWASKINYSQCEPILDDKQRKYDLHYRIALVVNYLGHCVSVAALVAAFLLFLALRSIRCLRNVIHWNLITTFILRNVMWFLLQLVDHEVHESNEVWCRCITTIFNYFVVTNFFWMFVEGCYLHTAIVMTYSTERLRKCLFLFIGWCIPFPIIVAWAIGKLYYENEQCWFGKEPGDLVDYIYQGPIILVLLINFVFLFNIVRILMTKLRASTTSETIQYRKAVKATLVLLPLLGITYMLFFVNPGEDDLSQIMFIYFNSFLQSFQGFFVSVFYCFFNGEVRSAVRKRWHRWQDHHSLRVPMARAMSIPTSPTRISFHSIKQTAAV
protocolSummary: cell-based or functional assay
Note: unit % is implicit; provide only the numeric part.

- binder: "ZGPPISIDVPFQLLRKVIEIEKQEKEKQQAANNARLLDTI (C-terminal amide) [SEQ ID NO 382]"
  unitText: "%"
  CRF2R Emax %: 100

Measured CRF2R Emax % of ZGPPISIDLPHALLRKMIEIEKQEKEKQQAANNRLLLDTI (not fully specified; C-terminal amide) [SEQ ID NO 304] : 92.5
